From: patent US20090298167A1

# subject_of_test: human IL-21R expressed on cells (human, UniProt Q9HBE5 20-538)
# Sequence (Q9HBE5 20-538 limits assumed): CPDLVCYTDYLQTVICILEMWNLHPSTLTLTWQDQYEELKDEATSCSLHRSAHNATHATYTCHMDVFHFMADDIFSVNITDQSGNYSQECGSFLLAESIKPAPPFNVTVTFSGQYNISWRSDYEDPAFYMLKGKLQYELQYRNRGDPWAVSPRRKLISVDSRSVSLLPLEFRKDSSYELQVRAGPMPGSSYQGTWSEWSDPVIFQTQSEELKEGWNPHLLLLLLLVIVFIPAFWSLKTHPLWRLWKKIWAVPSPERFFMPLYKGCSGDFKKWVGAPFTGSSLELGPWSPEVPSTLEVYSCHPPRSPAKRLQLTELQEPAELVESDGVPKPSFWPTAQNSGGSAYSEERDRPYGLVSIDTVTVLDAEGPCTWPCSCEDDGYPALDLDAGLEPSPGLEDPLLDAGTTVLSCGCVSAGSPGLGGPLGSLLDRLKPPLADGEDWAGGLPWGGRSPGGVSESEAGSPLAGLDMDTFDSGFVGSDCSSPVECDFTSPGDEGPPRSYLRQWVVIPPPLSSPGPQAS
# experiment_description: cell-based or functional assay
Below, each entry is listed with its recorded Human IL-21R-TF1 Neutralization IC50.
Express it in nM; write the number only.

May I ask what Human IL-21R-TF1 Neutralization IC50 has been recorded for AbT (antibody, human IgG1, V domains shown, Human IgG1 triple-mutant (L234A, L235A, G237A); Framework limits derived; also called VHP/VL9; VHPTM/VL9) VH: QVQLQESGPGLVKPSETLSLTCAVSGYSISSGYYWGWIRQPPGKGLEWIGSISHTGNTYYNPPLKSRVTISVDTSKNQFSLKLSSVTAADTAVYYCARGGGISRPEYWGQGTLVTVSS VL: SSELTQDPAVSVALGQTVRITCQGDSLRTYYASWYQQKPGQAPVLVIYGKHKRPSGIPDRFSGSSSGNTASLTITGAQAEDEADYYCVARSNKGNPHVLFGGGTQLTVL ?
2.32

What would you report for parental 18A5 antibody (antibody, V domains shown) VH: QVQLQESGPGLVKTSETLSLTCAVSGYSISSGYYWGWIRQPPGKGLEWIGSISHTGNTYYNPPLKSRVTISVDTSKNQFSLKLSSVTAADTAVYYCARGGGISRPEYWGKGTLVTVSS VL: SSELTQDPPVSVALGQTVTLTCQGDSLRTYYASWYQQKSGQAPILLLYGKHKRPSGIPDRFSGSTSGDTASLTITGAQAEDEADYYCNSRDSSGNPHVLFGGGTQLTVL ?
14

What would you report for AbS (antibody, human IgG1, V domains shown, Human IgG1 triple-mutant (L234A, L235A, G237A); Framework limits derived; also called VHP/VL6; VHPTM/VL6) VH: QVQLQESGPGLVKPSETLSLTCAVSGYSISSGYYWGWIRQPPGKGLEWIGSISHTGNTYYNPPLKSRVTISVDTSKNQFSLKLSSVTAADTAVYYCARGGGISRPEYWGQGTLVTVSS VL: SSELTQDPAVSVALGQTVRITCQGDSLRTYYASWYQQKPGQAPVLVIYGKHKRPSGIPDRFSGSSSGNTASLTITGAQAEDEADYYCMSRSIWGNPHVLFGGGTQLTVL ?
6.67

What would you report for AbR (antibody, human IgG1, V domains shown, Purified form: human IgG1 double-mutant (L234A, G237A); Framework limits derived; also called VH3/VL18; VH3DM/VL18) VH: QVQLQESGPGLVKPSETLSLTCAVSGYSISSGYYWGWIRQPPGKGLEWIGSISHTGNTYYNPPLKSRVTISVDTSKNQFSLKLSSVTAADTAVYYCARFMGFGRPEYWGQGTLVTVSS VL: SSELTQDPAVSVALGQTVRITCQGDSLRTYYASWYQQKPGQAPVLVIYGKHKRPSGIPDRFSGSSSGNTASLTITGAQAEDEADYYCVTRSVKGNPHVLFGGGTQLTVL ?
1.63
